- protocol description: Cmax in CD-1 mouse at 20 mg/kg administered via oral gavage by LC-MS/MS analysis
- Assay type: ADME, organism-based
- Design: dose 20 mg/kg, route oral
- experimental conditions: in vivo

smiles code	Cmax (ng/mL)
O=C(Nc1ccccc1)N1CCN(c2cccc3[nH]ccc23)CC1	4130

---

Measured pIC50 accompanies every entry in the list below.
- assay system: Aspartate aminotransferase, cytoplasmic (Homo sapiens, UniProt P17174)
- Sequence (P17174 whole entry): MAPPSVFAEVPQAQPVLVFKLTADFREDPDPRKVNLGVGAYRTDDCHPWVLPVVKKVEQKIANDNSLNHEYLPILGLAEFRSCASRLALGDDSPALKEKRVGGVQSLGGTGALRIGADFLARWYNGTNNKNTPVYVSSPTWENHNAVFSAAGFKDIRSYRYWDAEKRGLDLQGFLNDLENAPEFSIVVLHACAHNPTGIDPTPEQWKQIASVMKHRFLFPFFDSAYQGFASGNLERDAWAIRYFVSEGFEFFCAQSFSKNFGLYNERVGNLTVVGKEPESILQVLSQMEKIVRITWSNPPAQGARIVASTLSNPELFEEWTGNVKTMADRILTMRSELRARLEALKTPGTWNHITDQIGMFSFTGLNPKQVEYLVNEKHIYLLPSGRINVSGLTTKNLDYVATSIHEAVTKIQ
pIC50: −log10 of the molar value.

smiles code	assay system	pIC50
COc1ccc(NC(=O)N2CCN(c3cccc4[nH]ccc34)CC2)cc1OC	Aspartate aminotransferase, cytoplasmic (Homo sapiens, UniProt P17174)	< 4.00
O=C(Nc1cncnc1)N1CCN(c2cccc3[nH]ccc23)CC1	Aspartate aminotransferase, cytoplasmic (Homo sapiens, UniProt P17174)	< 4.00
O=C(Nc1ccccc1)N1CCN(c2ccc(Cl)c3[nH]ccc23)CC1	Aspartate aminotransferase, cytoplasmic (Homo sapiens, UniProt P17174)	< 4.00
O=C(Nc1cccc(C(F)(F)F)c1)N1CCN(c2ccncc2)CC1	Aspartate aminotransferase, cytoplasmic (Homo sapiens, UniProt P17174)	< 4.00
Cc1cc(N2CCN(C(=O)Nc3ccccc3)CC2)c2cc[nH]c2c1	Aspartate aminotransferase, cytoplasmic (Homo sapiens, UniProt P17174)	< 4.00
O=C(Nc1ccc(OC(F)(F)F)cc1)N1CCN(c2cccc3[nH]ccc23)CC1	Aspartate aminotransferase, cytoplasmic (Homo sapiens, UniProt P17174)	4.44
COc1ccc(OC)c(NC(=O)N2CCN(c3cccc4[nH]ccc34)CC2)c1	Aspartate aminotransferase, cytoplasmic (Homo sapiens, UniProt P17174)	< 4.00
O=C(Nc1c(Cl)cccc1Cl)N1CCN(c2cccc3[nH]ccc23)CC1	Aspartate aminotransferase, cytoplasmic (Homo sapiens, UniProt P17174)	< 4.00
O=C(Nc1ccccc1Cl)N1CCN(c2cccc3[nH]ccc23)CC1	Aspartate aminotransferase, cytoplasmic (Homo sapiens, UniProt P17174)	< 4.00
COc1ccc(N2CCN(C(=O)Nc3ccccc3)CC2)cc1	Aspartate aminotransferase, cytoplasmic (Homo sapiens, UniProt P17174)	< 4.00
O=C(Nc1ccc(Br)cc1)N1CCN(c2cccc3[nH]ccc23)CC1	Aspartate aminotransferase, cytoplasmic (Homo sapiens, UniProt P17174)	4.80
